B1: Homeobox protein cut-like 1, residues 548 to 629; numbered along this chain, P39880 (parent)
chain: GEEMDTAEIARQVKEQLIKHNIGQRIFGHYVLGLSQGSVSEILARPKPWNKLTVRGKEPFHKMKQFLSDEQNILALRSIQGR

- Variants of: B1
- assay procedure: abundance fitness (aPCA) (normalised: wild type 0, dead -1); higher = more abundant; growth selection in yeast, the domain comes from the species named
- measurement context: Homo sapiens
measured attribute: abundance fitness

mutant_code=A10H reported_result=-1.24
mutant_code=R45E reported_result=-0.009
mutant_code=Y30N reported_result=-0.282
mutant_code=Q36M reported_result=-0.104
mutant_code=R55S reported_result=0.004
mutant_code=V39Q reported_result=-0.676
mutant_code=S68H reported_result=-0.292
mutant_code=L52A reported_result=-1.04
mutant_code=Q71C reported_result=-0.11
mutant_code=R25Q reported_result=0.019
mutant_code=W49A reported_result=-0.202
mutant_code=R55Q reported_result=0.067
mutant_code=K57Y reported_result=-0.528
mutant_code=F66W reported_result=0.116
mutant_code=Q80Y reported_result=-0.188
mutant_code=I73Q reported_result=-0.336
mutant_code=N21R reported_result=-0.115
mutant_code=M4H reported_result=-0.304
mutant_code=R11D reported_result=-0.274
mutant_code=Q36R reported_result=-0.049
mutant_code=N21M reported_result=-0.378
mutant_code=K51P reported_result=-0.912
mutant_code=E3S reported_result=-0.118
mutant_code=R11A reported_result=-0.157
mutant_code=S35C reported_result=-0.086
mutant_code=L74P reported_result=-0.417
mutant_code=E70Y reported_result=-0.152
mutant_code=A44K reported_result=-0.094
mutant_code=E8K reported_result=-0.113
mutant_code=R55I reported_result=-0.148
mutant_code=G23S reported_result=0.023
mutant_code=F27H reported_result=-1.14
mutant_code=I9F reported_result=-0.547
mutant_code=A44G reported_result=-0.038
mutant_code=D5F reported_result=-0.644
mutant_code=N72D reported_result=-0.221
mutant_code=H29Q reported_result=0.038
mutant_code=E8P reported_result=-0.979
mutant_code=L43F reported_result=-0.146
mutant_code=I9G reported_result=-0.623
mutant_code=K57S reported_result=-0.334
mutant_code=R25E reported_result=0.158
mutant_code=K51S reported_result=0.006
mutant_code=V39M reported_result=-0.249
mutant_code=L34T reported_result=-0.213
mutant_code=Q80E reported_result=0

Ref: the Human Domainome abundance scans (Beltran et al. 2025)
